# Test: Permeability across MDCK cells
# Assay type: ADME, cell-based, Canis lupus familiaris
# Experimental conditions: dog
Threshold 10 ×10⁻⁶ cm/s. Papp below it: criterion met. Papp at it or above: criterion not met.

QUERY: Answer whether the compound "CCCC[C@@H](/C=N/NS(=O)(=O)N(C)C)NC(=O)OC(C)(C)C" has Papp strictly less than 10 ×10⁻⁶ cm/s
RESULT: criterion not met

QUERY: Answer whether the compound "CCCC[C@@H](/C=N/NC(=O)N1CCOCC1)NC(=O)O[C@@H](C)Cc1ccccc1" has Papp strictly less than 10 ×10⁻⁶ cm/s
RESULT: criterion not met

QUERY: Answer whether the compound "CCCC[C@@H](/C=N/NC(=O)N1CCc2ccccc21)NC(=O)OC(C)(C)C" has Papp strictly less than 10 ×10⁻⁶ cm/s
RESULT: criterion not met

QUERY: Answer whether the compound "CCCC[C@@H](/C=N/NC(=O)N1CCOCC1)NC(=O)OC(C)(C)C" has Papp strictly less than 10 ×10⁻⁶ cm/s
RESULT: criterion met

QUERY: Answer whether the compound "CCCC[C@@H](/C=N/NC(=O)N1CCCC1)NC(=O)OC(C)(C)C" has Papp strictly less than 10 ×10⁻⁶ cm/s
RESULT: criterion not met

====

# Target or test system: Procathepsin L (Homo sapiens, UniProt P07711)
# Sequence (P07711 whole entry): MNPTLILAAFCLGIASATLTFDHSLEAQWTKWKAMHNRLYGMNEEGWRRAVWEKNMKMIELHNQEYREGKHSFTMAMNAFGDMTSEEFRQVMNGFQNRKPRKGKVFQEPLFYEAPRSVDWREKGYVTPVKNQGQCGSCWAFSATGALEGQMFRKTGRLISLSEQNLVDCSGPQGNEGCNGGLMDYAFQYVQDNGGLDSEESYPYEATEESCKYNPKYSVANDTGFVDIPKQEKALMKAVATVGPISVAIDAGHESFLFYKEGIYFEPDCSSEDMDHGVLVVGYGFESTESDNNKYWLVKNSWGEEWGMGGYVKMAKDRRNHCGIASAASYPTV
# Test: Inhibition of recombinant human cathepsin L in a fluorescence assay
Would you kindly list log10 of IC50 for each of these molecules?
Recorded IC50 (log10, µM)

Value (log10 of IC50, Procathepsin L (Homo sapiens, UniProt P07711)) for record "CCCC[C@@H](C=O)NC(=O)O[C@H](Cc1ccccc1)C(C)C" = -1.92

Value (log10 of IC50, Procathepsin L (Homo sapiens, UniProt P07711)) for record "CCCC[C@@H](/C=N/NC(=O)N1CCc2ccccc21)NC(=O)OC(C)(C)C" = 1.15

Value (log10 of IC50, Procathepsin L (Homo sapiens, UniProt P07711)) for record "CCCC[C@@H](/C=N/NC(=O)N1CCOCC1)NC(=O)O[C@H](Cc1ccccc1)C(C)C" = -1.92

Value (log10 of IC50, Procathepsin L (Homo sapiens, UniProt P07711)) for record "CCCC[C@@H](C=O)NC(=O)OC(C)(C)C" = 0.95

Value (log10 of IC50, Procathepsin L (Homo sapiens, UniProt P07711)) for record "CCCC[C@@H](/C=N/NC(=O)N1CCOCC1)NC(=O)OC(C)(C)C" = 1.04

Value (log10 of IC50, Procathepsin L (Homo sapiens, UniProt P07711)) for record "CCCC[C@@H](/C=N/NC(=O)N1CCOCC1)NC(=O)O[C@@H](C)Cc1ccccc1" = -0.27

Value (log10 of IC50, Procathepsin L (Homo sapiens, UniProt P07711)) for record "CCCC[C@@H](/C=N/NC(=O)N1CCc2ccccc21)NC(=O)OC1(Cc2ccccc2)CCCC1" = 0.53

====

# Test: Solubility in fasted state-simulated intestinal fluid at pH 6.8
# Assay type: physicochemical
Metric: solubility (µg/mL)
# number only, unit µg/mL dropped from output

get_value(item= "CCCC[C@@H](/C=N/NS(=O)(=O)N(C)C)NC(=O)OC(C)(C)C" , readout=solubility) returns 380

get_value(item= "CCCC[C@@H](/C=N/NC(=O)N1CCc2ccccc21)NC(=O)OC(C)(C)C" , readout=solubility) returns 33

get_value(item= "CCCC[C@@H](/C=N/NC(=O)N1CCOCC1)NC(=O)O[C@@H](C)Cc1ccccc1" , readout=solubility) returns 60

get_value(item= "CCCC[C@@H](/C=N/NC(=O)N1CCCC1)NC(=O)OC(C)(C)C" , readout=solubility) returns 71

get_value(item= "CCCC[C@@H](/C=N/NC(=O)N1CCOCC1)NC(=O)OC(C)(C)C" , readout=solubility) returns 120

====

# Test: Volume of distribution in Han Wistar rat
# Assay type: ADME, organism-based
# Experimental conditions: Han Wistar, in vivo
Would you kindly list Vd for each of these compounds?
# number only, unit L/kg dropped from output

get_value(item= "CCCC[C@@H](/C=N/NC(=O)N1CCOCC1)NC(=O)OC(C)(C)C" , readout=Vd) returns 0.57

get_value(item= "CCCC[C@@H](/C=N/NS(=O)(=O)N(C)C)NC(=O)OC(C)(C)C" , readout=Vd) returns 0.39

====

# Target or test system: Cathepsin B (Homo sapiens, UniProt P07858)
# Test: Inhibition of recombinant human cathepsin B in a fluorescence assay
Would you kindly list pIC50 for each of these molecules?
pIC50 (log units): -log10 of the concentration in mol/L.

get_value(item= "CCCC[C@@H](C=O)NC(=O)OC(C)(C)C" , readout=pIC50) returns 4.49

get_value(item= "CCCC[C@@H](/C=N/NC(=O)N1CCOCC1)NC(=O)OC(C)(C)C" , readout=pIC50) returns 4.49

get_value(item= "CCCC[C@@H](/C=N/NC(=O)N1CCc2ccccc21)NC(=O)OC1(Cc2ccccc2)CCCC1" , readout=pIC50) returns 5.74

get_value(item= "CCCC[C@@H](/C=N/NC(=O)N1CCOCC1)NC(=O)O[C@H](Cc1ccccc1)C(C)C" , readout=pIC50) returns 7.74

get_value(item= "CCCC[C@@H](C=O)NC(=O)O[C@H](Cc1ccccc1)C(C)C" , readout=pIC50) returns 7.57

get_value(item= "CCCC[C@@H](/C=N/NC(=O)N1CCOCC1)NC(=O)O[C@@H](C)Cc1ccccc1" , readout=pIC50) returns 6.57

get_value(item= "CCCC[C@@H](/C=N/NC(=O)N1CCc2ccccc21)NC(=O)OC(C)(C)C" , readout=pIC50) returns 4.46

====

# Test: Terminal half life in iv dosed Han Wistar rat
# Assay type: ADME, organism-based
# Experimental conditions: Han Wistar, in vivo, read-out: beta t1/2
Metric: half-life
Kindly report the value followed by its unit.

get_value(item= "CCCC[C@@H](/C=N/NS(=O)(=O)N(C)C)NC(=O)OC(C)(C)C" , readout=half-life) returns 39 min

get_value(item= "CCCC[C@@H](/C=N/NC(=O)N1CCOCC1)NC(=O)OC(C)(C)C" , readout=half-life) returns 22 min

====

# Target or test system: Cathepsin K (Homo sapiens)
# Sequence (P43235 whole entry): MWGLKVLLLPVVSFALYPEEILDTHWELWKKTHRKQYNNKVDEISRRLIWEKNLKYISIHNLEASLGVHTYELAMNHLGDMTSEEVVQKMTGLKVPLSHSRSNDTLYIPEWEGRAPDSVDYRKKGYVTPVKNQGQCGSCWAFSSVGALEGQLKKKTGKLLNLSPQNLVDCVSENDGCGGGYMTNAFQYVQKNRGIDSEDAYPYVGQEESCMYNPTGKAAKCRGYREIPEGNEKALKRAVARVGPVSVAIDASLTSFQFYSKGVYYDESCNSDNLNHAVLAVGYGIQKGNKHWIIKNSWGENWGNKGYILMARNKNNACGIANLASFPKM
# Test: Inhibition of recombinant human cathepsin K in a fluorescence assay
Threshold 0.2 µM. IC50 below it: rule met. IC50 at it or above: rule not met.

QUERY: Answer whether the compound "CCCC[C@@H](/C=N/NC(=O)N1CCc2ccccc21)NC(=O)OC1(Cc2ccccc2)CCCC1" has IC50 strictly less than 0.2 µM
RESULT: rule met

QUERY: Answer whether the compound "CCCC[C@@H](/C=N/NC(=O)c1ccccc1)NC(=O)OC(C)(C)C" has IC50 strictly less than 0.2 µM
RESULT: rule not met

QUERY: Answer whether the compound "CCCC[C@@H](/C=N/NC(=O)N(C)C)NC(=O)OC(C)(C)C" has IC50 strictly less than 0.2 µM
RESULT: rule met

QUERY: Answer whether the compound "CC(C)C[C@@H](/[13CH]=N/NC(=O)N1CCOCC1)NC(=O)OC(C)(C)C" has IC50 strictly less than 0.2 µM
RESULT: rule met

QUERY: Answer whether the compound "CCCC[C@@H](/C=N/NC(=O)NCCc1ccccc1)NC(=O)OC(C)(C)C" has IC50 strictly less than 0.2 µM
RESULT: rule not met

QUERY: Answer whether the compound "CCCC[C@@H](/C=N/N=C(N)N)NC(=O)OC(C)(C)C" has IC50 strictly less than 0.2 µM
RESULT: rule not met

QUERY: Answer whether the compound "CCCC[C@@H](/C=N/NS(=O)(=O)N(C)C)NC(=O)OC(C)(C)C" has IC50 strictly less than 0.2 µM
RESULT: rule met

QUERY: Answer whether the compound "CCCC[C@@H](/C=N/NC(N)=O)NC(=O)OC(C)(C)C" has IC50 strictly less than 0.2 µM
RESULT: rule not met

QUERY: Answer whether the compound "CCCC[C@@H](/C=N/N=C(\S)NC(C)C)NC(=O)OC(C)(C)C" has IC50 strictly less than 0.2 µM
RESULT: rule met

====

Would you kindly list IC50 for each of these compounds?
# Target or test system: Pro-cathepsin H (Homo sapiens, UniProt P09668)
# Sequence (P09668 116-335 limits assumed, other chains not shown): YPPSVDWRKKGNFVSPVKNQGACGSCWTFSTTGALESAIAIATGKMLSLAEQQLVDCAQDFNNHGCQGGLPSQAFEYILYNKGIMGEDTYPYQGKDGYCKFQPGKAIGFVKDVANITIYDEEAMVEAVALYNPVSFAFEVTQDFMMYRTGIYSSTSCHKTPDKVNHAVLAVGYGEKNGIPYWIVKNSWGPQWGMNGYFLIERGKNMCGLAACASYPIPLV
# Test: Inhibition of recombinant human cathepsin H in a fluorescence assay
# number only, unit nM dropped from output

get_value(item= "CCCC[C@@H](/C=N/NC(=O)N1CCOCC1)NC(=O)O[C@@H](C)Cc1ccccc1" , readout=IC50) returns 230

get_value(item= "CCCC[C@@H](C=O)NC(=O)O[C@@H](C)Cc1ccccc1" , readout=IC50) returns 40

get_value(item= "CCCC[C@@H](/C=N/NC(=O)N1CCOCC1)NC(=O)O[C@H](Cc1ccccc1)C(C)C" , readout=IC50) returns 190

get_value(item= "CCCC[C@@H](C=O)NC(=O)O[C@H](Cc1ccccc1)C(C)C" , readout=IC50) returns 18

From: ChEMBL document CHEMBL1138109
